Data credit: ChEMBL document CHEMBL1135542

Entries below carry reported Kd on UniProt:P00918.
Answers are plain numbers, in µM.

- compound: "CN(C)c1cccc2c(S(N)(=O)=O)cccc12"
  Kd, µM: 93

For the next question, use this molecule.
Exercise: What Kd value was documented for this molecule, N[C@@H](Cc1ccccc1)C(=O)NCCOCCOCCNC(=O)c1ccc(S(N)(=O)=O)cc1 ?
Solution: 0.014

* * *

Answer each item with its documented pKi.
target: Carbonic anhydrase 2 (Homo sapiens)
One number for each entry, as −log10 of the molar value.

- compound: "NS(=O)(=O)c1cc2cc(N3CCSCC3)sc2s1"
  target.system: "Carbonic anhydrase 2 (Homo sapiens)"
  pKi: 9.36

Exercise: What pKi value was documented for this molecule, NS(=O)(=O)c1cc2cc(N3CCOCC3)sc2s1 ?
Solution: 8.96

* * *

Entries below carry reported IC50 on Carbonic anhydrase 2 (Homo sapiens, UniProt P00918).
One number for each entry, in nM.

- compound: "NS(=O)(=O)c1cc2cc(N3CCOCC3)sc2s1"
  IC50 / nM: 3
- compound: "CC(C)(C)C(=O)Oc1ccc2sc(S(N)(=O)=O)cc2c1"
  IC50 / nM: 2.6
- compound: "COCCOCCN(CCOC)c1cc2cc(S(N)(=O)=O)sc2s1"
  IC50 / nM: 2.8

Provide the reported IC50 of each entry below, same order.
1. NS(=O)(=O)c1cc2cc(N3CCSCC3)sc2s1
2. CN(C)Cc1cc(S(=O)(=O)c2ccc(S(N)(=O)=O)s2)ccc1O

Solution:
[2.6, 0.7]

Exercise: What IC50 value was documented for this compound, CC1(C)O[C@H]2[C@@H]3OS(=O)(=O)O[C@@H]3CC[C@@]2(COS(N)(=O)=O)O1 ?
Solution: 130
